Just for reference, patent US12065471B2 is where these values come from.

- assayed_system: HLA-B*44:05 (Homo sapiens, UniProt P01889, A223V/A65T/A93T/A95T/D201E/D98Y/E176V/E187L/E204Q/E69K/G107R/H137Y/K202T/L105A/L119I/N104T/N87E/Q56L/Q94N/R106L/R155S/R180D/S101N/S121R/S35A/S48T/T118I/V36M/W191S/Y91S)
- protocol_text: MHC binding assay (UV-ligand exchange, β2m ELISA, peptide exchange yield)
- assay_setup: binding to HLA-B*44:05
value_type: Peptide exchange (MHC class I binding score, peptide exchange yield)

substance	reading
422 (EEAQWVRKYF; listed as Homo sapiens) [compound 422]	+++ (>50 = +++)
21 (SEAKEIKSQL; listed as Homo sapiens) [compound 21]	+++ (>50 = +++)
18 (QEAPRPASSL; listed as Homo sapiens) [compound 18]	+++ (>50 = +++)
102 (TELADLDAAW; listed as Homo sapiens) [compound 102]	++++ (>75% = ++++)
303 (GEDAHLTQY; listed as Homo sapiens) [compound 303]	++ (>20% = ++)
42 (SEENTGKTYF; listed as Homo sapiens) [compound 42]	+++ (>50 = +++)
205 (MEIEGAGNFL; listed as Homo sapiens) [compound 205]	++++ (>75% = ++++)
329 (SEPQITVNF; listed as Homo sapiens) [compound 329]	+++ (>50 = +++)
92 (KEPSQSCIAQY; listed as Homo sapiens) [compound 92]	+ (>10% = +)
261 (QEWDPQKTEKY; listed as Homo sapiens) [compound 261]	+++ (>50 = +++)
187 (TEQALRLSV; listed as Homo sapiens) [compound 187]	++++ (>75% = ++++)
26 (EESSSPVDEY; listed as Homo sapiens) [compound 26]	++ (>20% = ++)
157 (SQDVAGTTF; listed as Homo sapiens) [compound 157]	++ (>20% = ++)
117 (SEVPVDSHY; listed as Homo sapiens) [compound 117]	+++ (>50 = +++)
341 (HELESENKKW; listed as Homo sapiens) [compound 341]	+++ (>50 = +++)
319 (YEWEPFAEV; listed as Homo sapiens) [compound 319]	+ (>10% = +)
185 (TEANVQALF; listed as Homo sapiens) [compound 185]	++++ (>75% = ++++)
300 (KQTEATMTF; listed as Homo sapiens) [compound 300]	++ (>20% = ++)
235 (SESLPRAPL; listed as Homo sapiens) [compound 235]	+++ (>50 = +++)
27 (GETCVRITY; listed as Homo sapiens) [compound 27]	+++ (>50 = +++)
59 (AEIEADRSYQ; listed as Homo sapiens) [compound 59]	++ (>20% = ++)
81 (GEKATMQNL; listed as Homo sapiens) [compound 81]	++ (>20% = ++)
415 (EEAGFPLAY; listed as Homo sapiens) [compound 415]	+++ (>50 = +++)
96 (MDELEEGESY; listed as Homo sapiens) [compound 96]	+ (>10% = +)
383 (EEMERDLDMY; listed as Homo sapiens) [compound 383]	+++ (>50 = +++)
120 (VTEGAVEVKY; listed as Homo sapiens) [compound 120]	+ (>10% = +)
438 (AELDSKILAL; listed as Homo sapiens) [compound 438]	+++ (>50 = +++)
33 (IEYENQKRL; listed as Homo sapiens) [compound 33]	++ (>20% = ++)
432 (TEENGFWYL; listed as Homo sapiens) [compound 432]	++++ (>75% = ++++)
62 (AEYSVHKITSTF; listed as Homo sapiens) [compound 62]	++++ (>75% = ++++)
404 (AEREQVIKL; listed as Homo sapiens) [compound 404]	++++ (>75% = ++++)
164 (DEDGKIVGY; listed as Homo sapiens) [compound 164]	++ (>20% = ++)
